Origin of values: paper PMC5915741

Consider the following binders; for each one, report its pKi.
Assay System: T1, 2b (Tomato aspermy virus (TAV), UniProt Q8UYT3 1-95)
T1 sequence: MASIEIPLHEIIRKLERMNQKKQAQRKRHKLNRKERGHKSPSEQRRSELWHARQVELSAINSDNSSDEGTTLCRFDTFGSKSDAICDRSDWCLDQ
Experiment Notes: competition EMSA; KC vs labeled gf698 siRNA, 1.9 nM 2b monomer
Condition Details: protein: recombinant; tags: His-SUMO removed by SUMO protease; chain copies: 2; miRNA duplex with mismatches, 3' overhangs
Answers are plain numbers, as −log10 of the molar value.

Illustrative cases are given below, each with its answer.
{"columns": ["Binder", "pKi"],
 "data": [
  ["AtmiR162 (= NbmiR162b per Table 1) (dsRNA, 5' phosphate on both strands) RNA 1: UCGAUAAACCUCUGCAUCCAG RNA 2: GGAGGCAGCGGUUCAUCGAUC", 9.17],
  ["NbmiR403a (dsRNA, 5' phosphate on both strands) RNA 1: UUAGAUUCACGCACAAACUCG RNA 2: UGUUUGUGCGUGAAUCUGACA", 11.00],
  ["NbmiR403b (dsRNA, 5' phosphate on both strands) RNA 1: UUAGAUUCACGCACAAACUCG RNA 2: UGUUUGUGCGUGAUUCUGACA", 10.70]
]}

I am curious: what pKi value has been reported for AtmiR168a (= NbmiR168d,e) (dsRNA, 5' phosphate on both strands) RNA 1: UCGCUUGGUGCAGGUCGGGAA RNA 2: CCCGCCUUGCAUCAACUGAAU ?
7.92
